These data points were gathered from ChEMBL document CHEMBL5257059.

Would you kindly list IC50 for each of these compounds?
# Test system: HT-29
# experimental_protocol: Antiproliferative activity against human HT-29 cells assessed as inhibition of cell growth incubated for 24 hrs by MTT assay
# Type: functional, cell-based
# measurement_setup: HT-29, 24 h

Illustrative cases are given below, each with its answer.
>  <smiles_code>
c1ccc(-n2c(SCCc3c[nH]c4ccccc34)nnc2-c2ccncc2)cc1

>  <IC50>
> 30 µM

$$$$
>  <smiles_code>
c1ccc(Cn2c(SCCc3c[nH]c4ccccc34)nnc2-c2ccncc2)cc1

>  <IC50>
> 30 µM

$$$$
>  <smiles_code>
CCCn1c(SCCc2c[nH]c3ccccc23)nnc1-c1ccncc1

>  <IC50>
> 30 µM

$$$$
>  <smiles_code>
C=CCn1c(SCCc2c[nH]c3ccccc23)nnc1-c1ccncc1

>  <IC50>
> 30 µM

$$$$
>  <smiles_code>
Brc1cccc(-n2c(SCCc3c[nH]c4ccccc34)nnc2-c2ccncc2)c1

>  <IC50>
12.2 µM

$$$$

For every item below, please supply its IC50.
1. Clc1ccc(-n2c(SCCc3c[nH]c4ccccc34)nnc2-c2ccncc2)cc1
2. Cc1ccccc1-n1c(SCCc2c[nH]c3ccccc23)nnc1-c1ccncc1
3. O=c1[nH]cc(F)c(=O)[nH]1

Result:
> 30 µM
> 30 µM
5.31 µM
